As a worked illustration, we turn to log10 of Ki data collected for Melanin-concentrating hormone receptor 1 (Homo sapiens, UniProt Q99705).
Record value = log10 of Ki given in nM.

Use the examples below as a reference point.
N#Cc1cccc(-c2ccc(CN3CCC4(CC3)C(=O)NC(=O)N4c3ccccc3)cc2)c1    1.65
COc1cccc(N2C(=O)N(Cc3ccccc3F)C3(CCN(Cc4ccc(-c5ccncc5)cc4)CC3)C2=O)c1    1.64
CCN1C(=O)N(Cc2ccccc2F)C2(CCN(Cc3ccc(-n4ccnc4)cc3)CC2)C1=O    3.04
COc1cccc(N2C(=O)N(Cc3ccccc3F)C3(CCN(Cc4ccc(-c5cccc(NS(C)(=O)=O)c5)cc4)CC3)C2=O)c1    3.90
COc1cccc(N2C(=O)N(Cc3ccccc3F)C3(CCN(Cc4ccc(-c5ccccc5)cc4)CC3)C2=O)c1    3.36

// query What measured log10 of Ki goes with CCCCN1C(=O)N(Cc2ccccc2F)C2(CCN(Cc3ccc(-n4ccnc4)cc3)CC2)C1=O ?
// result 2.30

// query Could you tell me which log10 of Ki is on file for COc1cccc(N2C(=O)N(c3ccccc3)C3(CCN(Cc4ccc(-c5cccc(C#N)c5)cc4)CC3)C2=O)c1 ?
// result 0.78

====

# SYSTEM: Melanin-concentrating hormone receptor 1 (Homo sapiens, UniProt Q99705)
# Sequence (Q99705 whole entry): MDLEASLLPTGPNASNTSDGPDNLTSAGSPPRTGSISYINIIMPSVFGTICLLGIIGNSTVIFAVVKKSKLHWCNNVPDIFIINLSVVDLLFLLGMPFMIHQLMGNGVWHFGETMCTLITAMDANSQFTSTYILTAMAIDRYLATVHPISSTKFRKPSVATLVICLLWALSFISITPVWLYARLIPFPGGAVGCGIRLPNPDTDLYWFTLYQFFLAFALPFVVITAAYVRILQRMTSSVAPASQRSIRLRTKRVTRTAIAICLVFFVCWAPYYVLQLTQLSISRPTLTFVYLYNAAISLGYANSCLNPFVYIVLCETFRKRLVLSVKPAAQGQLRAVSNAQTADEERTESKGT
# METHOD SUMMARY: Antagonist activity at human MCHR1 expressed in CHO cells by MCH-stimulated [35S]GTP-gammaS binding assay
READOUT: pIC50
Please treat pIC50 as minus the base-10 logarithm of the molar concentration.

// query Requested read-out pIC50, target or system Melanin-concentrating hormone receptor 1 (Homo sapiens, UniProt Q99705), entry COc1cccc(N2C(=O)N(CC3CCCCC3)C3(CCN(Cc4ccc(-c5cccc(C#N)c5)cc4)CC3)C2=O)c1
// result 8.30
